Tested target: T1, human NPR1 on HEK293/hNPR1.myc.DDK cells (0 hANP) (human, UniProt P16066 33-1061)
T1 sequence: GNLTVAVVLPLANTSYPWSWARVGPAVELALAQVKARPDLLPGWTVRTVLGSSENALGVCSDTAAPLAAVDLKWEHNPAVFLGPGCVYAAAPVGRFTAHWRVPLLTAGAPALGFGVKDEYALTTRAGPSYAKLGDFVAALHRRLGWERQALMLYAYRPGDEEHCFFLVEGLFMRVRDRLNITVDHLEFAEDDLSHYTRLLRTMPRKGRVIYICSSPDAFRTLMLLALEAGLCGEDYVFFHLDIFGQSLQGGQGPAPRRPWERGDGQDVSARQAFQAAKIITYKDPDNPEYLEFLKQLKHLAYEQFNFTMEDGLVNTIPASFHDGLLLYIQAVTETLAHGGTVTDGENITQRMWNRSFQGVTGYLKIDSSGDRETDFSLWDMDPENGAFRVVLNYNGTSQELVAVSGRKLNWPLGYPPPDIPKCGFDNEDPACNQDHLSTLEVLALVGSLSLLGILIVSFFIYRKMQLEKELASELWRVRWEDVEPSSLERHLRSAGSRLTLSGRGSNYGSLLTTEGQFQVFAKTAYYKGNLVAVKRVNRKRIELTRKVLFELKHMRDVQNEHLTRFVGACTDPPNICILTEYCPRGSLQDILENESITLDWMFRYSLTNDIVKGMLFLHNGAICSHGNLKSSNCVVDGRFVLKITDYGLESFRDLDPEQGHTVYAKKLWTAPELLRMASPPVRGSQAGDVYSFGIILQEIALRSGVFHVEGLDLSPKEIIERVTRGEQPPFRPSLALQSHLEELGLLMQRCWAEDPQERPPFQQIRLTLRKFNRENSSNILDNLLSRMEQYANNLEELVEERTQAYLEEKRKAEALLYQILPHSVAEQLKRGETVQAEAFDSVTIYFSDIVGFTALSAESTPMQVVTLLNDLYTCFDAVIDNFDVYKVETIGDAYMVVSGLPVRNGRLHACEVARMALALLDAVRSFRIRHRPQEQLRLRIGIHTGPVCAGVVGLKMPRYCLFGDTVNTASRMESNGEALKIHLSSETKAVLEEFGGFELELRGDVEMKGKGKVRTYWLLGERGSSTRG
Experiment description: cell-based or functional assay
# maps each entry to its EC50 (nM), calcium flux, Expt 1
Your answer is read as nM, so omit the unit and give the number.

These solved cases illustrate the format of a correct answer.
Binder: mAb22809 (antibody, human IgG4, V domains shown) VH: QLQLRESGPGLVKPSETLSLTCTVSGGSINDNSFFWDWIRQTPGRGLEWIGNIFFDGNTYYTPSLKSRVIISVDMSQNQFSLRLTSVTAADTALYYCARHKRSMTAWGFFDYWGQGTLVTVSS VL: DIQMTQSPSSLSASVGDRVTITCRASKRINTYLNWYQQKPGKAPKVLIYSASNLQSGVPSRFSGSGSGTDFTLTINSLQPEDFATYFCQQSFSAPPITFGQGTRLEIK
Readout unit: nM
EC50 (nM), calcium flux, Expt 1: 270

Binder: mAb25479 (antibody, human IgG4, V domains shown) VH: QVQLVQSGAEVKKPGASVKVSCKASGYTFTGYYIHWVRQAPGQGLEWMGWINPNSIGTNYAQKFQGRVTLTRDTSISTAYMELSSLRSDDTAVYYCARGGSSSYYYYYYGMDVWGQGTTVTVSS VL: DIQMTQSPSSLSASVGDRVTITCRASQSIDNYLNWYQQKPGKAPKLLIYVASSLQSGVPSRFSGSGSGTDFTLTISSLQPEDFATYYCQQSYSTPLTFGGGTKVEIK
Readout unit: nM
EC50 (nM), calcium flux, Expt 1: 174

Value lookup for EC50 (nM), calcium flux, Expt 1; key = mAb22035 (antibody, human IgG4, V domains shown) VH: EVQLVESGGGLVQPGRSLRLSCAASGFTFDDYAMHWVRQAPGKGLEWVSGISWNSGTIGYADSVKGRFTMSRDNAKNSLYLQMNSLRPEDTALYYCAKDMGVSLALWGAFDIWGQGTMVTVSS VL: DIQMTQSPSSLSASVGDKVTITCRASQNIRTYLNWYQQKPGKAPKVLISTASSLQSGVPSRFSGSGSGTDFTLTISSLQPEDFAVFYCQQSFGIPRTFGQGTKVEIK
384
